molecular target: Histone deacetylase 1 (Homo sapiens); assay: Inhibition of human recombinant HDAC1 after 15 mins by fluorimetric assay
Sequence (Q13547 whole entry): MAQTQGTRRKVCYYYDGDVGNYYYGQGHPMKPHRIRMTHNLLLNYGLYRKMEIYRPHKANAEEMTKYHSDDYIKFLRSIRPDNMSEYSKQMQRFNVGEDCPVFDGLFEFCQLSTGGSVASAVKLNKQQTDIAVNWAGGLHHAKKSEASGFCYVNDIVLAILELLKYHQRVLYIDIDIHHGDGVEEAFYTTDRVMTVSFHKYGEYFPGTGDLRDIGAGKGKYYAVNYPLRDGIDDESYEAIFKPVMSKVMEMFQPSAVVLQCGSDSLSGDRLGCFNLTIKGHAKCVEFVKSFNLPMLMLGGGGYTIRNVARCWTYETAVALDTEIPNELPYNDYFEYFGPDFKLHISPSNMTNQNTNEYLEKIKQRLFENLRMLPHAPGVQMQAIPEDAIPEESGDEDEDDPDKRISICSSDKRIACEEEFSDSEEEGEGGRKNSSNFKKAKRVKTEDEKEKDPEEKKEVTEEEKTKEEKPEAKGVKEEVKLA
pIC50: −log10 of the molar value.
# binarize pIC50: threshold 8 inclusive, high side 1 (yes), low side 0 (no)

For orientation, consider the following solved cases.
structure=CCCCCCCC(=O)SCC/C=C/[C@@H]1CC(=O)NCc2nc(cs2)C2=N[C@@](Cc3ccccc3)(CS2)C(=O)N[C@@H](C(C)C)C(=O)O1 subject_of_test="Histone deacetylase 1 (Homo sapiens)" class_name="1 (yes)"
structure=CCCCCCCC(=O)SCC/C=C/[C@@H]1CC(=O)NCc2nc(cs2)C2=N[C@@](CC)(CS2)C(=O)N[C@@H](C(C)C)C(=O)O1 subject_of_test="Histone deacetylase 1 (Homo sapiens)" class_name="0 (no)"

Now for a further compound.
State whether the measured pIC50 reaches 8, counting equality as reaching it, for CCCCCCCC(=O)SCC/C=C/[C@@H]1CC(=O)NCc2nc(cs2)-c2nc(cs2)C(=O)N[C@@H](C(C)C)C(=O)O1
1 (yes)

* * *

molecular target: Histone deacetylase 4 (Homo sapiens); test: Inhibition of human recombinant HDAC4 after 15 mins by fluorimetric assay
Sequence (P56524 whole entry): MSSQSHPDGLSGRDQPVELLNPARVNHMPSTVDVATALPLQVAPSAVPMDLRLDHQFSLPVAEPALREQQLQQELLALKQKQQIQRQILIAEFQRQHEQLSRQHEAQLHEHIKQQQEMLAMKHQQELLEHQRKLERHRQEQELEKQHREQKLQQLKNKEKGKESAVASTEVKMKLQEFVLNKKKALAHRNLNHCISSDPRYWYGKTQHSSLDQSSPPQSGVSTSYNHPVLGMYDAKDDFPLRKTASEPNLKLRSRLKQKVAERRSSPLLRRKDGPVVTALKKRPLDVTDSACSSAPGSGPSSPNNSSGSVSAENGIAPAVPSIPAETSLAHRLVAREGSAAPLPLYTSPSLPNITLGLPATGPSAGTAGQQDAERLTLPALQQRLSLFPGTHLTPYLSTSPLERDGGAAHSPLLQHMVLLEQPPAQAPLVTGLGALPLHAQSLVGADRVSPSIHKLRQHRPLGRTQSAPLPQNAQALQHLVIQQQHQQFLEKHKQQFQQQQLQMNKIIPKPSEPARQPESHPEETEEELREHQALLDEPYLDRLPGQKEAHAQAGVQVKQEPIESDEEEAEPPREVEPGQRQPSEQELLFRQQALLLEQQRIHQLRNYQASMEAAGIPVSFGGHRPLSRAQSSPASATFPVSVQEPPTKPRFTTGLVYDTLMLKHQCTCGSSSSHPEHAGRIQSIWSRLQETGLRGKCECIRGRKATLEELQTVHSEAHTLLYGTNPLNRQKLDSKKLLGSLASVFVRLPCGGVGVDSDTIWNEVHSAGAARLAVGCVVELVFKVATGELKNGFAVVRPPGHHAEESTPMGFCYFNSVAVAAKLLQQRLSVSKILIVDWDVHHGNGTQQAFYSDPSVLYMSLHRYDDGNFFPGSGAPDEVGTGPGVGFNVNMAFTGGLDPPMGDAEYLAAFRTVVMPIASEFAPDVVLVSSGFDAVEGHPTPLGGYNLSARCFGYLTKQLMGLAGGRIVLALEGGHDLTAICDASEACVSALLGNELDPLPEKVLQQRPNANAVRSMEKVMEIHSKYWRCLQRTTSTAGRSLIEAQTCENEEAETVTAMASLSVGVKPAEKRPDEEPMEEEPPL
Readout Type: IC50 (µM)
Answers are plain numbers, in µM.

As a guide, the following entries are already answered.
structure=CCCCCCCC(=O)SCC/C=C/[C@@H]1CC(=O)NCc2nc(cs2)C2=N[C@@](CC)(CS2)C(=O)N[C@@H](C(C)C)C(=O)O1 result=4.9
structure=CCCCCCCC(=O)SCC/C=C/[C@@H]1CC(=O)NCc2nc(cs2)C2=N[C@@](C)(CS2)C(=O)N[C@@H](C(C)C)C(=O)O1 result=3
structure=CCCCCCCC(=O)SCC/C=C/[C@@H]1CC(=O)NCc2nc(cs2)C2=N[C@@](Cc3ccccc3)(CS2)C(=O)N[C@@H](C(C)C)C(=O)O1 result=3
structure=CCCCCCCC(=O)SCC/C=C/[C@@H]1CC(=O)NCc2nc(cs2)-c2nc(cs2)C(=O)N[C@@H](C(C)C)C(=O)O1 result=3

Next, consider the following compound.
State recorded IC50 with Histone deacetylase 4 (Homo sapiens), entry CCCCCCCC(=O)SCC/C=C/[C@@H]1CC(=O)NCc2nc(cs2)C2=N[C@@H](CS2)C(=O)N[C@@H](C(C)C)C(=O)O1 , no comment.
7.5

* * *

tested on: NB-4; test: Cell cycle arrest in human NB4 cells assessed as increase in accumulation at pre-G1 phase at 5 uM after 24 hrs by FACS analysis; assay type: functional, cell-based
Calls of active or inactive are those of the source. The calls are words filed in the database; no cut-off is given here.
Parameter call: string, one of YES for active, NO for inactive

For orientation, consider the following solved cases.
structure=O=C(CCCCCCC(=O)Nc1ccccc1)NO class_name=YES
structure=CCCCCCCC(=O)SCC/C=C/[C@@H]1CC(=O)NCc2nc(cs2)C2=N[C@@](C)(CS2)C(=O)N[C@@H](C(C)C)C(=O)O1 class_name=YES

Now for a further molecule.
Could you please tell me the result logged for CCCCCCCC(=O)SCC/C=C/[C@@H]1CC(=O)NCc2nc(cs2)C2=N[C@@](CC)(CS2)C(=O)N[C@@H](C(C)C)C(=O)O1 in this assay?
YES

* * *

biological target: Tubulin (Homo sapiens) (UniProt P68371+Q9H4B7+P0DPH7+P68366+Q13509+Q71U36+P04350+Q3ZCM7+P07437+P68363+Q9BQE3+Q6PEY2+Q13885+Q9BVA1+Q9BUF5); experiment: Inhibition of HDAC in human NB4 cells assessed as increase in acetylate tubulin level at 5 uM after 24 hrs by Western blot analysis; type: cell-based; conditions: NB-4
Activity calls are given as the source filed them. The calls are words filed in the database; no cut-off is given here.
Parameter call: string, one of active, inactive

For orientation, consider the following solved cases.
structure=CCCCCCCC(=O)SCC/C=C/[C@@H]1CC(=O)NCc2nc(cs2)C2=N[C@@H](CS2)C(=O)N[C@@H](C(C)C)C(=O)O1 class_name=active
structure=O=C(CCCCCCC(=O)Nc1ccccc1)NO class_name=active
structure=CCCCCCCC(=O)SCC/C=C/[C@@H]1CC(=O)NCc2nc(cs2)-c2nc(cs2)C(=O)N[C@@H](C(C)C)C(=O)O1 class_name=inactive
structure=CCCCCCCC(=O)SCC/C=C/[C@@H]1CC(=O)NCc2nc(cs2)C2=N[C@@](CC)(CS2)C(=O)N[C@@H](C(C)C)C(=O)O1 class_name=active

Could you please tell me the result logged for CCCCCCCC(=O)SCC/C=C/[C@@H]1CC(=O)NCc2nc(cs2)C2=N[C@@](Cc3ccccc3)(CS2)C(=O)N[C@@H](C(C)C)C(=O)O1 in this assay?
active

Could you please tell me the result logged for CCCCCCCC(=O)SCC/C=C/[C@@H]1CC(=O)NCc2nc(cs2)C2=N[C@@](C)(CS2)C(=O)N[C@@H](C(C)C)C(=O)O1 in this assay?
active

* * *

system: NB-4; assay: Cell cycle arrest in human NB4 cells assessed as increase in accumulation at pre-G1 phase at 5 uM after 24 hrs by FACS analysis; type: functional, cell-based
The source made the active and inactive calls. The calls are words filed in the database; no cut-off is given here.
Parameter call: string, one of t = active, f = inactive

structure=CCCCCCCC(=O)SCC/C=C/[C@@H]1CC(=O)NCc2nc(cs2)C2=N[C@@](Cc3ccccc3)(CS2)C(=O)N[C@@H](C(C)C)C(=O)O1 class_name=t
structure=Nc1ccccc1NC(=O)c1ccc(CNC(=O)OCc2cccnc2)cc1 class_name=t
structure=CCCCCCCC(=O)SCC/C=C/[C@@H]1CC(=O)NCc2nc(cs2)C2=N[C@@H](CS2)C(=O)N[C@@H](C(C)C)C(=O)O1 class_name=t

Now for a further compound.
Could you please tell me the result logged for CCCCCCCC(=O)SCC/C=C/[C@@H]1CC(=O)NCc2nc(cs2)-c2nc(cs2)C(=O)N[C@@H](C(C)C)C(=O)O1 in this assay?
f
